- Species: Homo sapiens
- PROTOCOL_DESCRIPTION: Selectivity for ROCK1 over MSK1
MEASUREMENT_LABEL: Selectivity ratio

>>> value_measured("CCn1c(-c2nonc2N)nc2cnc(OC)cc21")
2.3
>>> value_measured("CCn1c(-c2nonc2N)nc2cnccc21")
0.18

[I] CCn1c(-c2nonc2N)nc2cnc(Oc3ccc(NC(C)=O)cc3)cc21
[II] CCn1c(-c2nonc2N)nc2cnc(Oc3cccc(NC(C)=O)c3)cc21
Which has the smaller recorded Selectivity ratio, I or II ? Write the label of whichever entry you select.
II
(II: 2.8, I: 9.7)

----------
- Organism: Homo sapiens
- PROTOCOL_DESCRIPTION: Selectivity for ROCK1 over RSK1
MEASUREMENT_LABEL: Selectivity ratio

[P] CCn1c(-c2nonc2N)nc2cnc(Oc3cccc(N)c3)cc21
[Q] CCn1c(-c2nonc2N)nc2cnc(Oc3cccc(NC(=O)c4ccc(N(C)C)cc4)c3)cc21 [GSK-248233A]
Out of P and Q , name the one with the higher Selectivity ratio. Write the label of whichever entry you select.
Q

----------
- TARGET_OR_TEST_SYSTEM: Rho-associated protein kinase 1 (Homo sapiens, UniProt Q13464)
- Sequence (Q13464 whole entry): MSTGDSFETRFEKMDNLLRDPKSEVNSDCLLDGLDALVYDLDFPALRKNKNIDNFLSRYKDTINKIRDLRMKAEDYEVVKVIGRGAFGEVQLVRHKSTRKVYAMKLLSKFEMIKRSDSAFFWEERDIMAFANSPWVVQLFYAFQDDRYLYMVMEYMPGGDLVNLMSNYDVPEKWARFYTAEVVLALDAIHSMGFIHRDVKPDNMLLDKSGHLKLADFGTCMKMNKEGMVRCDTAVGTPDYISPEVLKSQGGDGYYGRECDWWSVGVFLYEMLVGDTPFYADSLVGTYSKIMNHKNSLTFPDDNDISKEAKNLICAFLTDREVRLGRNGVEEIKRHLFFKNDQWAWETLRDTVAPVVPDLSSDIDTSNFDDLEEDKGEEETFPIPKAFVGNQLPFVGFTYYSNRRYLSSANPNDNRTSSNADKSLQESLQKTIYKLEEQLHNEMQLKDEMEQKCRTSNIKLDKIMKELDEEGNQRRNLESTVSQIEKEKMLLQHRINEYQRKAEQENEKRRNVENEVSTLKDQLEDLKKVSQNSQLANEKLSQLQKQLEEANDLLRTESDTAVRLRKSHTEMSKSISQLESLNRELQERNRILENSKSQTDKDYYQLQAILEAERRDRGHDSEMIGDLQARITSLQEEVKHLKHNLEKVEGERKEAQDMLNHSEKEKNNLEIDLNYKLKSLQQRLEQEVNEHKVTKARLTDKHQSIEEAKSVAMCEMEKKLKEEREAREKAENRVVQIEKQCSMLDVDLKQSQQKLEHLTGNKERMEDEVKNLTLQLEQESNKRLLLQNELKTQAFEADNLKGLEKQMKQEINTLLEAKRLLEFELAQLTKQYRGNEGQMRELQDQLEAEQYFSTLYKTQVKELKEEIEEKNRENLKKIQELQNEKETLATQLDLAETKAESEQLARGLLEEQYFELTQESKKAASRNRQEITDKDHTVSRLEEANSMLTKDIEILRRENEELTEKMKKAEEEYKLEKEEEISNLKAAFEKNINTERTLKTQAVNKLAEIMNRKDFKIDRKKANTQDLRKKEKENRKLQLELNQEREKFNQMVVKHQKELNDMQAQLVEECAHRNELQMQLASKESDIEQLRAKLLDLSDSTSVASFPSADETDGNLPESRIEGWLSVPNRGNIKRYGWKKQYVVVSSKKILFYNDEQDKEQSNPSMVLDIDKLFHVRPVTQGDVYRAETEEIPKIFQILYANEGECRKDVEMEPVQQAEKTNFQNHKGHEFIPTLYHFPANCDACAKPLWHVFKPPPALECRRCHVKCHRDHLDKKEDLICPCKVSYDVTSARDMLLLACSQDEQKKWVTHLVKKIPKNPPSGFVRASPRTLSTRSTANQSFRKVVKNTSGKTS
- PROTOCOL_DESCRIPTION: Inhibition of human ROCK1 in Sf9 cells
MEASUREMENT_LABEL: IC50 (nM)

A selection of reference data follows.
>>> value_measured("CCn1c(-c2nonc2N)nc2cnc(Oc3cccc(C(C)=O)c3)cc21")
13
>>> value_measured("CCn1c(-c2nonc2N)nc2cnc(OC)cc21")
4.4
>>> value_measured("CCn1c(-c2nonc2N)nc2cnc(Oc3cccc(NC(=O)c4ccc(N(C)C)cc4)c3)cc21 [GSK-248233A]")
2

[a] CCn1c(-c2nonc2N)nc2cnc(Oc3ccccc3)cc21
[b] CCn1c(-c2nonc2N)nc2cnc(Oc3ccc(NC(C)=O)cc3)cc21
Out of a and b , name the one with the higher IC50. Write the label of whichever entry you select.
b
(b: 90 nM, a: 30 nM)

----------
- Organism: Homo sapiens
- PROTOCOL_DESCRIPTION: Selectivity for ROCK1 over p70S6K
Quick reference for Selectivity ratio among some compounds

A selection of reference data follows.
>>> value_measured("CCn1c(-c2nonc2N)nc2cnc(Oc3cccc(NC(=O)c4ccc(N5CCOCC5)cc4)c3)cc21")
"> 10"
>>> value_measured("CCn1c(-c2nonc2N)nc2cnc(Oc3cccc(NC(=O)c4ccc(CN)cc4)c3)cc21")
"> 17"
>>> value_measured("CCn1c(-c2nonc2N)nc2cnc(Oc3cccc(NC(=O)c4ccc(OCCN(C)C)cc4)c3)cc21")
"> 3"

Next item in the queue.
So what's the measured Selectivity ratio for this one? "CCn1c(-c2nonc2N)nc2cnc(Oc3cccc(NC(=O)c4ccc(CN(C)C)cc4)c3)cc21"
> 3

----------
- Species on record: Homo sapiens
- PROTOCOL_DESCRIPTION: Selectivity for ROCK1 over MSK1
Quick reference for Selectivity ratio among some molecules

A selection of reference data follows.
>>> value_measured("CCn1c(-c2nonc2N)nc2cnc(Oc3cccc(NC(=O)c4ccc(CN5CCOCC5)cc4)c3)cc21")
"> 35"
>>> value_measured("CCn1c(-c2nonc2N)nc2cnc(Oc3cccc(NC(=O)c4ccc(CN(C)C)cc4)c3)cc21")
"> 52"
>>> value_measured("CCn1c(-c2nonc2N)nc2cnc(Oc3cccc(NC(=O)c4ccc(CN)cc4)c3)cc21")
"> 70"

Next item in the queue.
So what's the measured Selectivity ratio for this one? "CCn1c(-c2nonc2N)nc2cnc(Oc3cccc(NC(=O)c4ccc(OCCN(C)C)cc4)c3)cc21"
> 65
